Consider the following molecules; for each one, report its concentration at 1 h.
- TEST_PROTOCOL: Squirrel monkey plasma levels
- Assay type: in vivo
- ASSAY_CONDITIONS: 60 minutes, read-out: Plasma Levels, Time in Minutes 60
Numbers only, in ng/mL.

Could I get concentration at 1 h for every one of these entries?
1. C=C(C)[C@@H](N)C(=O)N[C@@H]1C(=O)N2[C@@H]1SC(C)(C)[C@@H]2C(=O)O [Example 6]
2. CC1(C)S[C@@H]2[C@H](NC(=O)[C@H](N)c3ccc(O)cc3)C(=O)N2[C@H]1C(=O)O [Amoxycillin, reference compound]
3. CC1(C)S[C@@H]2[C@H](NC(=O)[C@H](N)C=C(Cl)Cl)C(=O)N2[C@H]1C(=O)O [Example 5 (D-stereoisomer)]
4. C=C[C@@H](N)C(=O)N[C@@H]1C(=O)N2[C@@H]1SC(C)(C)[C@@H]2C(=O)O [Example 1]

Reply:
[20000, 12600, 24300, 32700]

Data credit: patent EP0209237A2
